Catalogue of abundance fitness values
B1: POU domain, class 6, transcription factor 2, residues 609 to 663; numbered along this chain, P78424 (parent)
chain: KRRTSFTPQALEILNAHFEKNTHPSGQEMTEIAEKLNYDREVVRVWFCNKRQALK

# Variants of: B1
# experimental_details: abundance fitness (aPCA) (normalised: wild type 0, dead -1); higher = more abundant; growth selection in yeast, the domain comes from the species named
# experimental_parameters: Homo sapiens

Use the examples below as a reference point.
mutation_spec=R2N result=0.095
mutation_spec=T30H result=-0.061
mutation_spec=T22N result=0.049
mutation_spec=N37F result=-0.353
mutation_spec=S25E result=-0.383
mutation_spec=R2G result=-0.034
mutation_spec=G26N result=-0.041
mutation_spec=K35S result=-0.047
mutation_spec=F6H result=-0.272
mutation_spec=S25N result=-0.073

// sample `K55R` , its abundance fitness was 0.001

// sample `Q9L` , its abundance fitness was -0.253

// sample `P8N` , its abundance fitness was -0.072

// sample `N15M` , its abundance fitness was -0.132

// sample `E12A` , its abundance fitness was -0.401
